Where do the numbers come from? From patent US6677277B1.

# Test system: Solanum
# method_summary: Post-emergence test/greenhouse
# Type: in vivo
# measurement_conditions: post-emergence, 60 g ai./ha, after three weeks
recorded_metric: % damage, Solanum (%)
Just the number in %, nothing appended.

Completed entries (count: 4):
- chemical_structure: "CCSc1cccc(C)c1S(=O)(=O)NC(=O)n1nc(CC)n(C)c1=O"
  unit_name: "%"
  % damage, Solanum: 90
- chemical_structure: "COc1cccc(SC(C)C)c1S(=O)(=O)NC(=O)n1nc(OC)n(C)c1=O"
  unit_name: "%"
  % damage, Solanum: 95
- chemical_structure: "CCc1nn(C(=O)NS(=O)(=O)c2c(OC)cccc2SC)c(=O)n1C"
  unit_name: "%"
  % damage, Solanum: 80
- chemical_structure: "COc1cccc(SC)c1S(=O)(=O)NC(=O)n1nc(OC)n(C)c1=O"
  unit_name: "%"
  % damage, Solanum: 100

Look up % damage, Solanum: CCOc1nn(C(=O)NS(=O)(=O)c2c(OC)cccc2SC)c(=O)n1C 100

Look up % damage, Solanum: CCOc1nn(C(=O)NS(=O)(=O)c2c(OC(F)(F)F)cccc2SCC)c(=O)n1C 95

###

# System: Stellaria
# method_summary: Post-emergence test/greenhouse
# Type: in vivo
# measurement_conditions: 60 g ai./ha, after three weeks
recorded_metric: % damage, Stellaria

Completed entries (count: 2):
- chemical_structure: "COc1cccc(SC)c1S(=O)(=O)NC(=O)n1nc(OC)n(C)c1=O"
  target_desc: "Stellaria"
  result: "100%"
- chemical_structure: "CCc1nn(C(=O)NS(=O)(=O)c2c(OC(F)(F)F)cccc2SC)c(=O)n1C"
  target_desc: "Stellaria"
  result: "80%"

Look up % damage, Stellaria: CCc1nn(C(=O)NS(=O)(=O)c2c(OC)cccc2SC)c(=O)n1C 90%

###

# Test system: Lolium
# method_summary: Pre-emergence test/greenhouse
# Format: in vivo
# measurement_conditions: 125 g ai./ha, after three weeks
Parameter % damage, Lolium: see the listing below.
Just the number in %, nothing appended.

Look up % damage, Lolium: CCc1nn(C(=O)NS(=O)(=O)c2c(OC)cccc2SC)c(=O)n1C [Example 22] 100

Look up % damage, Lolium: CCSc1cccc(OC)c1S(=O)(=O)NC(=O)n1nc(CC)n(C)c1=O [Example 8] 80

Look up % damage, Lolium: CCSc1cccc(OC(F)(F)F)c1S(=O)(=O)NC(=O)n1nc(OC)n(C)c1=O [Example 40] 95

Look up % damage, Lolium: CCOc1nn(C(=O)NS(=O)(=O)c2c(OC(F)(F)F)cccc2SC(C)C)c(=O)n1C [Example 25] 70

Look up % damage, Lolium: CCSc1cccc(OC(F)(F)F)c1S(=O)(=O)NC(=O)n1nc(SC)n(C)c1=O [Example 41] 80

###

# Tested on: Xanthium
# method_summary: Post-emergence test/greenhouse
# Assay type: in vivo
# measurement_conditions: post-emergence, 60 g ai./ha, rated after three weeks vs untreated control
recorded_metric: Xanthium, % damage (%)
Just the number in %, nothing appended.

Completed entries (count: 4):
- compound: "CCOc1nn(C(=O)NS(=O)(=O)c2c(SCC)cccc2SCC)c(=O)n1C [Example 43]"
  readout_number: 100
- compound: "CCSc1cccc(OC(F)(F)F)c1S(=O)(=O)NC(=O)n1nc(OC)n(C)c1=O [Example 40]"
  readout_number: 100
- compound: "CCSc1cccc(SCC)c1S(=O)(=O)NC(=O)n1nc(CC)n(C)c1=O [Example 44]"
  readout_number: 100
- compound: "CCSc1cccc(OC(F)(F)F)c1S(=O)(=O)NC(=O)n1nc(CC)n(C)c1=O [Example 39]"
  readout_number: 95

Look up Xanthium, % damage: CCOc1nn(C(=O)NS(=O)(=O)c2c(SCC)cccc2C(F)(F)F)c(=O)n1C [Example 11] 90

Look up Xanthium, % damage: CCc1nn(C(=O)NS(=O)(=O)c2c(C)cccc2SC)c(=O)n1C [Example 49] 95

Look up Xanthium, % damage: CCSc1cccc(SCC)c1S(=O)(=O)NC(=O)n1nc(OC)n(C)c1=O [Example 46] 100

Look up Xanthium, % damage: CCOc1nn(C(=O)NS(=O)(=O)c2c(C)cccc2SC)c(=O)n1C [Example 48] 95

###

# Test system: Wheat
# method_summary: Post-emergence test/greenhouse
# Format: in vivo
# measurement_conditions: 60 g ai./ha, rated after three weeks vs untreated control
Parameter Wheat, % damage: see the listing below.
Just the number in %, nothing appended.

- chemical_structure: "CCSc1cccc(OC(F)(F)F)c1S(=O)(=O)NC(=O)n1nc(CC)n(C)c1=O"
  target_desc: "Wheat"
  readout_number: 20

Look up Wheat, % damage: CCc1nn(C(=O)NS(=O)(=O)c2c(C)cccc2SC)c(=O)n1C 20

Look up Wheat, % damage: CCOc1nn(C(=O)NS(=O)(=O)c2c(SCC)cccc2C(F)(F)F)c(=O)n1C 0

Look up Wheat, % damage: CCSc1cccc(OC(F)(F)F)c1S(=O)(=O)NC(=O)n1nc(OC)n(C)c1=O 20

###

Parameter % damage, Alopecurus: see the listing below.
# Test system: Alopecurus
# method_summary: Pre-emergence test/greenhouse
# Type: in vivo
# measurement_conditions: 125 g ai./ha, after three weeks
Just the number in %, nothing appended.

Look up % damage, Alopecurus: CCOc1nn(C(=O)NS(=O)(=O)c2c(SC(C)(C)C)cccc2C(F)(F)F)c(=O)n1C [Example 60] 90

Look up % damage, Alopecurus: CSc1cccc(OC(F)(F)F)c1S(=O)(=O)NC(=O)n1nc(SC)n(C)c1=O [Example 33] 100

Look up % damage, Alopecurus: CCOc1nn(C(=O)NS(=O)(=O)c2c(Cl)cccc2SC)c(=O)n1C [Example 1] 95

Look up % damage, Alopecurus: CCOc1nn(C(=O)NS(=O)(=O)c2c(OC(F)(F)F)cccc2SC(C)C)c(=O)n1C [Example 25] 100

###

Parameter % damage, Sorghum: see the listing below.
# System: Sorghum
# method_summary: Post-emergence test/greenhouse
# Type: in vivo
# measurement_conditions: post-emergence, 60 g ai./ha, after three weeks
Just the number in %, nothing appended.

Completed entries (count: 4):
- chemical_structure: "CCOc1nn(C(=O)NS(=O)(=O)c2c(SC)cccc2SC)c(=O)n1C"
  target_desc: "Sorghum"
  % damage, Sorghum [%]: 100
- chemical_structure: "CCOc1nn(C(=O)NS(=O)(=O)c2c(OC)cccc2SCC)c(=O)n1C"
  target_desc: "Sorghum"
  % damage, Sorghum [%]: 95
- chemical_structure: "CCOc1nn(C(=O)NS(=O)(=O)c2c(OC)cccc2SC)c(=O)n1C"
  target_desc: "Sorghum"
  % damage, Sorghum [%]: 100
- chemical_structure: "COc1cccc(SC(C)C)c1S(=O)(=O)NC(=O)n1nc(OC)n(C)c1=O"
  target_desc: "Sorghum"
  % damage, Sorghum [%]: 90

Look up % damage, Sorghum: CCOc1nn(C(=O)NS(=O)(=O)c2c(OC(F)(F)F)cccc2SCC)c(=O)n1C 70

Look up % damage, Sorghum: CCc1nn(C(=O)NS(=O)(=O)c2c(OC(F)(F)F)cccc2SC)c(=O)n1C 100

Look up % damage, Sorghum: COc1cccc(SC)c1S(=O)(=O)NC(=O)n1nc(OC)n(C)c1=O 100

Look up % damage, Sorghum: CCc1nn(C(=O)NS(=O)(=O)c2c(OC)cccc2SC)c(=O)n1C 95

###

# Test system: Stellaria
# method_summary: Post-emergence test/greenhouse
# Type: in vivo
# measurement_conditions: 60 g ai./ha, after three weeks
recorded_metric: % damage, Stellaria (%)
Just the number in %, nothing appended.

- compound: "COc1cccc(SC(C)C)c1S(=O)(=O)NC(=O)n1nc(OC)n(C)c1=O [Example 24]"
  target_desc: "Stellaria"
  % damage, Stellaria [%]: 95
- compound: "CCOc1nn(C(=O)NS(=O)(=O)c2c(OC)cccc2SCC)c(=O)n1C [Example 7]"
  target_desc: "Stellaria"
  % damage, Stellaria [%]: 100
- compound: "CCOc1nn(C(=O)NS(=O)(=O)c2c(OC)cccc2SC)c(=O)n1C [Example 20]"
  target_desc: "Stellaria"
  % damage, Stellaria [%]: 100
- compound: "CCOc1nn(C(=O)NS(=O)(=O)c2c(SC)cccc2SC)c(=O)n1C [Example 52]"
  target_desc: "Stellaria"
  % damage, Stellaria [%]: 95

Consider the record given below.
Can you look up % damage, Stellaria on Stellaria for CCOc1nn(C(=O)NS(=O)(=O)c2c(OC(F)(F)F)cccc2SCC)c(=O)n1C [Example 6] ? 95

###

# Test system: Sorghum
# method_summary: Pre-emergence test/greenhouse
# Assay type: in vivo
# measurement_conditions: 125 g ai./ha, after three weeks
Parameter % damage, Sorghum: see the listing below.
Just the number in %, nothing appended.

- chemical_structure: "COc1cccc(SCCF)c1S(=O)(=O)NC(=O)n1nc(OC)n(C)c1=O"
  target_desc: "Sorghum"
  recorded_metric: "% damage, Sorghum"
  unit_name: "%"
  readout_number: 100
- chemical_structure: "CCOc1nn(C(=O)NS(=O)(=O)c2c(OC(F)(F)F)cccc2SCC)c(=O)n1C"
  target_desc: "Sorghum"
  recorded_metric: "% damage, Sorghum"
  unit_name: "%"
  readout_number: 80
- chemical_structure: "COc1cccc(SC(C)C)c1S(=O)(=O)NC(=O)n1nc(OC)n(C)c1=O"
  target_desc: "Sorghum"
  recorded_metric: "% damage, Sorghum"
  unit_name: "%"
  readout_number: 70
- chemical_structure: "CCSc1cccc(C(F)(F)F)c1S(=O)(=O)NC(=O)n1nc(SC)n(C)c1=O"
  target_desc: "Sorghum"
  recorded_metric: "% damage, Sorghum"
  unit_name: "%"
  readout_number: 90
- chemical_structure: "CCOc1nn(C(=O)NS(=O)(=O)c2c(Cl)cccc2SC)c(=O)n1C"
  target_desc: "Sorghum"
  recorded_metric: "% damage, Sorghum"
  unit_name: "%"
  readout_number: 90

Consider the record given below.
Look up % damage, Sorghum: CCOc1nn(C(=O)NS(=O)(=O)c2c(SCC)cccc2C(F)(F)F)c(=O)n1C 100
